# subject-of-test: human TLR7 (Homo sapiens (Human))
# assay-comment: TLR7 inhibition reporter assay (HEK-Blue cells, SEAP reporter, gardiquimod stimulation)
# Format: cell-based
# measurement-parameters: HEK-Blue cells, gardiquimod 7.5 μM
quantity: pIC50
Answers are plain numbers, as −log10 of the molar value.

[
  {
    "compound": "COC[C@H](O)CN1CCC(c2ccc3[nH]c(-c4cc(C)nc(C)c4)c(C(C)C)c3c2)CC1",
    "pIC50": 8.39
  },
  {
    "compound": "Cc1cc(-c2[nH]c3ccc(C4CCN(CC5CCCCC5)CC4)cc3c2C(C)C)ccn1",
    "pIC50": 7.27
  },
  {
    "compound": "Cc1cc(-c2[nH]c3ccc(C4CCN(CC(O)C(C)(C)C)CC4)cc3c2C(C)C)cc(C)n1 (centres unmarked)",
    "pIC50": 8.42
  },
  {
    "compound": "Cc1cc(-c2[nH]c3cc(F)c(C4CCN(C5CC(C)OC(C)C5)CC4)cc3c2C(C)C)cc(C)n1 (centres unmarked) [Example 833]",
    "pIC50": 8.03
  }
]

// for each compound in input: emit pIC50
1. Cc1cc(-c2[nH]c3cc(F)c(C4CCN(C5CCN(C(C)C)CC5)CC4)cc3c2C(C)C)ccn1
2. Cc1cc(-c2[nH]c3ccc(C4CCN(C(=O)C(=O)O)CC4)cc3c2C(C)C)cc(C)n1

Reply:
8.19
7.36

// for each compound in input: emit pIC50
1. COc1cc(-c2[nH]c3ccc(C4CCN(C5CCN(C)CC5)CC4)cc3c2C)ccn1
2. Cc1cc(-c2[nH]c3cc(F)c(C4CCN(C)CC4)cc3c2C(C)C)cc(C)n1

Reply:
1. 6.24
2. 8.92

* * *

# subject-of-test: human TLR7 (Homo sapiens (Human), UniProt Q9NYK1)
# Sequence (Q9NYK1 27-1049): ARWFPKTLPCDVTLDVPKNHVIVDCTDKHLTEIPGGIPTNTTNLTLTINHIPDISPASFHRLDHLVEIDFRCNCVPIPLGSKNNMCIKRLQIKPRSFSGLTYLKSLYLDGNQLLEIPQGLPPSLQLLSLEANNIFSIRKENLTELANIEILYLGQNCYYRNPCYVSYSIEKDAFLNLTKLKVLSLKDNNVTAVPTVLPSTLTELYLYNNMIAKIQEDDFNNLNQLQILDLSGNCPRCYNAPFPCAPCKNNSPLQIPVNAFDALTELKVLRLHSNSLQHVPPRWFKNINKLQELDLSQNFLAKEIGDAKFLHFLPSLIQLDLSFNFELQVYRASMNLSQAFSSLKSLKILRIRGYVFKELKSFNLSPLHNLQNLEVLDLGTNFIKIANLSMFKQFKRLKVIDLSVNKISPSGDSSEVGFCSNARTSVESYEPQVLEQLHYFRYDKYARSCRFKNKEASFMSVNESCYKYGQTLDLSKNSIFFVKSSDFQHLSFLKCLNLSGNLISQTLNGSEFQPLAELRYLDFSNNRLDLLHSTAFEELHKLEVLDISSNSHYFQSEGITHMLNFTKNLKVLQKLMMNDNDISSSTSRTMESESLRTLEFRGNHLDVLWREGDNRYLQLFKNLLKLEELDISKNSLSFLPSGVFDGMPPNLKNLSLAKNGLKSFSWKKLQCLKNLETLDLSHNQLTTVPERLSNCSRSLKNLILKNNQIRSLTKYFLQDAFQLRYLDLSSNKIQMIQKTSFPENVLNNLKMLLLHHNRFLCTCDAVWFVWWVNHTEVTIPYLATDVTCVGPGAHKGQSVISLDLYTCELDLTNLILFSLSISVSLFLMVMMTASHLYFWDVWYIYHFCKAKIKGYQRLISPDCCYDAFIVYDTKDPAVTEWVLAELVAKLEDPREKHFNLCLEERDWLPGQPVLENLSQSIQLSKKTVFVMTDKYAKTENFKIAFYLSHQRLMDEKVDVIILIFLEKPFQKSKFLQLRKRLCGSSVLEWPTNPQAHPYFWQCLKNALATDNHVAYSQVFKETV
# assay-comment: TLR7 inhibition reporter assay (HEK-Blue cells, SEAP reporter, gardiquimod stimulation)
# Format: cell-based
# measurement-parameters: HEK-Blue cells overexpressing human TLR7, gardiquimod 7.5 μM
quantity: IC50 (nM)
One number for each entry, in nM.

Reference set, count: 3
[
  {
    "compound": "Cc1cc(-c2[nH]c3ccc(C4CCN(C(=O)CN(C)CCO)CC4)cc3c2C(C)C)c(F)cn1 [Example 680]",
    "units-text": "nM",
    "IC50": 2
  },
  {
    "compound": "Cc1cc(-c2[nH]c3ccc(C4CCN(C(=O)Cc5cn(C)cn5)CC4)cc3c2C(C)C)cc(C)n1 [Example 137]",
    "units-text": "nM",
    "IC50": 8.2
  },
  {
    "compound": "CCC(=O)N1CCC(c2ccc3[nH]c(-c4ccnc(C)c4)c(C(C)C)c3c2)CC1 [Example 603]",
    "units-text": "nM",
    "IC50": 49
  }
]

Query compound follows.
Task item: Please list IC50 recorded for the compound Cc1cc(-c2[nH]c3ccc(C4CCN(C(=O)CNC[C@@H](O)CO)CC4)cc3c2C(C)C)ccn1 [Example 511]
Reply: 32.6

* * *

# subject-of-test: human TLR9 (Homo sapiens (Human), UniProt Q9NR96)
# Sequence (Q9NR96 26-1032): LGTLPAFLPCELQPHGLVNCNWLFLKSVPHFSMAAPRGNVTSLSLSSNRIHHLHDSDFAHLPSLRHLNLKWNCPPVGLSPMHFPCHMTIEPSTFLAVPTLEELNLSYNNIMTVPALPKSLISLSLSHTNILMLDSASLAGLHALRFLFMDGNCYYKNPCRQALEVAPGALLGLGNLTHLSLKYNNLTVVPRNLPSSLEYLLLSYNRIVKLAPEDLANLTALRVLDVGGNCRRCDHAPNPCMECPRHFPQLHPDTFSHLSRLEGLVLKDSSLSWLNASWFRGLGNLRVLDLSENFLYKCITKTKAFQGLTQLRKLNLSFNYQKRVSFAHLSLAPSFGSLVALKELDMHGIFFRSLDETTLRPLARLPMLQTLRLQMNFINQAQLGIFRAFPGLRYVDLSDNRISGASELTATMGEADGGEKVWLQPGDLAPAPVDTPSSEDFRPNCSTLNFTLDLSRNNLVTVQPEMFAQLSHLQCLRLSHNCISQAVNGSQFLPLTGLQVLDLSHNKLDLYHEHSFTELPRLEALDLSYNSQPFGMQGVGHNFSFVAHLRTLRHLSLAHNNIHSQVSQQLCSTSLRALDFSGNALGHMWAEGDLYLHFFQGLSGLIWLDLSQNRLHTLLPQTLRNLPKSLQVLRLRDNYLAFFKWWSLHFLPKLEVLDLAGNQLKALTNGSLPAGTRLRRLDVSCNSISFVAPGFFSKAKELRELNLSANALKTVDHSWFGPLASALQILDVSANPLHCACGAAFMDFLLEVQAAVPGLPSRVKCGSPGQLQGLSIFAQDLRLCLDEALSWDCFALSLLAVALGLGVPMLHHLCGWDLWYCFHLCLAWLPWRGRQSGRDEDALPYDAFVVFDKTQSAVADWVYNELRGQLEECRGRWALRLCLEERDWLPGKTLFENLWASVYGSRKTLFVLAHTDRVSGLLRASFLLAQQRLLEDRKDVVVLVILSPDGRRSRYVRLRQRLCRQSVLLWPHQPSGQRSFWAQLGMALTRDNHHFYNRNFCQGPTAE
# assay-comment: TLR9 inhibition reporter assay (HEK-Blue cells, SEAP reporter, ODN2006 stimulation);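 note: compounds tested over 0.05 nM to 50 µM, 22 h incubation, inhibition taken as SEAP signal drop from agonist plus DMSO wells toward a known inhibitor control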
# measurement-parameters: read-out: TLR9 IC50, HEK-Blue cells overexpressing human TLR9, ODN2006 5 nM
For each entry below, report its pIC50 value.
One number for each entry, as −log10 of the molar value.

[
  {
    "compound": "CNC(=O)CN1CCC(c2ccc3[nH]c(-c4cc(C5CC5)ncc4F)c(C(C)C)c3c2)CC1 [Example 514]",
    "pIC50": 4.96
  },
  {
    "compound": "CCc1c(-c2ccnc(OC)c2)[nH]c2ccc(C3CCN([C@H]4CCCNCC4)CC3)cc12 [Example 794]",
    "pIC50": 5.96
  },
  {
    "compound": "Cc1cc(-c2[nH]c3ccc(C4CCN(C5CCN(C(C)C)CC5)CC4)cc3c2C(C)C)cc(C)n1 [Example 427]",
    "pIC50": 6.76
  }
]

// for each compound in input: emit pIC50
1. Cc1cc(-c2[nH]c3ccc(C4CCN(CC5CC5)CC4)cc3c2C2CC2)cc(C)n1 [Example 667]
2. Cc1cc(-c2[nH]c3ccc(C4CCN(C(=O)CNCC(C)(C)C)CC4)cc3c2C(C)C)cc(C)n1 [Example 337]
3. Cc1cc(-c2[nH]c3ccc(C4CCN(C(=O)CNC5CCC5)CC4)cc3c2C(C)C)cc(C)n1 [Example 334]
4. CCc1c(-c2ccnc(C#N)c2)[nH]c2ccc(C3CCNCC3)cc12 [Example 64]
5. Cc1cc(-c2[nH]c3ccc(C4CCN(C)CC4)cc3c2CC(F)F)cc(C)n1 [Example 539]

Reply:
[7.07, 6.33, 6.32, 6.05, 5.32]

// for each compound in input: emit pIC50
1. Cc1cc(-c2[nH]c3ccc(C4CCN(C5CCCOC5)CC4)cc3c2C(C)C)cc(C)n1 (stereo not shown) [Example 457]
2. Cc1cc(-c2[nH]c3ccc(C4CCN(C5CCNCC5C)CC4)cc3c2C(C)C)ccn1 (stereo not shown) [Example 709]
3. Cc1cc(-c2[nH]c3ccc(C4CCN(C(=O)CN(CCO)Cc5ccc(F)cc5)CC4)cc3c2C(C)C)cc(C)n1 [Example 407]
4. CCC(O)CN1CCC(c2ccc3[nH]c(-c4ccnc(C)c4)c(C(C)C)c3c2)CC1 (stereo not shown) [Example 664]
5. CCNc1cc(-c2[nH]c3ccc(C4CCN(C5CCN(CC(C)C)CC5)CC4)cc3c2CC)ccn1 [Example 772]

Reply:
[6.56, 6.41, 6.31, 5.80, 6.69]

// for each compound in input: emit pIC50
1. Cc1cc(-c2[nH]c3ccc(C4CCN(CC(=O)NCCC(C)(C)C)CC4)cc3c2C(C)C)cc(C)n1 [Example 236]
2. Cc1cc(-c2[nH]c3ccc(C4CCN(Cc5ccnn5C)CC4)cc3c2C(C)C)cc(C)n1 [Example 461]

Reply:
[5.68, 6.21]

All values here come from patent US10660877B2.
